# TARGET OR TEST SYSTEM: SMO (Homo sapiens, UniProt Q99835)
# Construct: expressed in transfected cells; host or cells: HEK293
# Sequence (Q99835 28-787): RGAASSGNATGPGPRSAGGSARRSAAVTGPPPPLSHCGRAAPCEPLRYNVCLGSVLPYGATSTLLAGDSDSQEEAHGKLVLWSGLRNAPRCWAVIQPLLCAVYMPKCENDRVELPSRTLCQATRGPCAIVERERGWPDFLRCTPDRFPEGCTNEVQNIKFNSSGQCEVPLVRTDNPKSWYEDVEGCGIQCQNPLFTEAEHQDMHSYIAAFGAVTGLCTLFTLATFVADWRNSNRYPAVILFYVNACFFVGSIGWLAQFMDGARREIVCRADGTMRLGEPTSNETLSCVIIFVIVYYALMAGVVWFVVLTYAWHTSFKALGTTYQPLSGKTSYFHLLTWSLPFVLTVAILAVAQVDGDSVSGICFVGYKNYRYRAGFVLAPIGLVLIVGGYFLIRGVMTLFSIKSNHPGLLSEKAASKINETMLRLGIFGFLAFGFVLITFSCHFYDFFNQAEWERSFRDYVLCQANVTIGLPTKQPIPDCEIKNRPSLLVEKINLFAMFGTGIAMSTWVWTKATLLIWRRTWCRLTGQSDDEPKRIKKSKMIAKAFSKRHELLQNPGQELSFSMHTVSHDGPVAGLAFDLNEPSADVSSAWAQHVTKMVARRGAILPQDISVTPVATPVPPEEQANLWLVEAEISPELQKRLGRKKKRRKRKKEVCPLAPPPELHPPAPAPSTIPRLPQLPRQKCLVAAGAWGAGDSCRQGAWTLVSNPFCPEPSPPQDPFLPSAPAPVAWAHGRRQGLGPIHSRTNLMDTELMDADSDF
# EXPERIMENT: Smoothened (SMO) binding fluorescence polarisation assay (BODIPY-cyclopamine competition)
# STUDY CONDITIONS: SMO binding FP assay versus C3H10T1/2 cellular assay
PROPERTY NAME: Ratio of potency in SMO binding assay to potency in C3H10T1/2 cellular assay
Output: the number by itself.

Could you tell me which Ratio of potency in SMO binding assay to potency in C3H10T1/2 cellular assay is on file for O=C(OCC1CCC1)N1CC(S(=O)(=O)N2CCC(c3cn(C(=O)OCC4CCC4)c4ncccc34)CC2)C1 [Compound 154] ?
66

Could you tell me which Ratio of potency in SMO binding assay to potency in C3H10T1/2 cellular assay is on file for O=C(CC(O)(C(F)(F)F)C(F)(F)F)N1CC(S(=O)(=O)N2CCC(c3ccncc3)CC2)C1 [Compound 401] ?
3.0

Could you tell me which Ratio of potency in SMO binding assay to potency in C3H10T1/2 cellular assay is on file for C[C@](O)(C(=O)N1CC(S(=O)(=O)N2CCC(c3coc4cccnc34)CC2)C1)C(F)(F)F [Compound 395] ?
2.6

Could you tell me which Ratio of potency in SMO binding assay to potency in C3H10T1/2 cellular assay is on file for Cc1ccnc2[nH]cc(C3CCN(S(=O)(=O)C4CN(C(=O)OC(C)(C)C)C4)CC3)c12 [Compound 223] ?
21

Could you tell me which Ratio of potency in SMO binding assay to potency in C3H10T1/2 cellular assay is on file for CC(C)(C)OC(=O)N1CC(S(=O)(=O)N2CCC(c3cnc4occc4c3)CC2)C1 [Compound 124] ?
82

Could you tell me which Ratio of potency in SMO binding assay to potency in C3H10T1/2 cellular assay is on file for O=C(NC1(C(F)(F)F)CC1)[C@H]1C[C@H](S(=O)(=O)N2CCC(c3c[nH]c4ncccc34)CC2)C1 [Compound 298] ?
4.9

Could you tell me which Ratio of potency in SMO binding assay to potency in C3H10T1/2 cellular assay is on file for CC(C)(C)OC(=O)N1CC(S(=O)(=O)N2CCC(c3coc4cccnc34)CC2)C1 [Compound 131] ?
84

Could you tell me which Ratio of potency in SMO binding assay to potency in C3H10T1/2 cellular assay is on file for CC(C)(C)OC(=O)N1CC(S(=O)(=O)N2CC=C(c3c[nH]c4ncccc34)CC2)C1 [Compound 228] ?
20

Could you tell me which Ratio of potency in SMO binding assay to potency in C3H10T1/2 cellular assay is on file for CC1(C)COCN1C(=O)N1CC(S(=O)(=O)N2CCC(c3c[nH]c4ncccc34)CC2)C1 [Compound 256] ?
2.7

Could you tell me which Ratio of potency in SMO binding assay to potency in C3H10T1/2 cellular assay is on file for O=C([C@H]1C[C@H](S(=O)(=O)N2CCC(c3c[nH]c4ncccc34)CC2)C1)N1CCOCC1 [Compound 308] ?
4.8

Could you tell me which Ratio of potency in SMO binding assay to potency in C3H10T1/2 cellular assay is on file for O=C(OCC1CCCO1)N1CC(S(=O)(=O)N2CCC(c3c[nH]c4ncccc34)CC2)C1 (stereo not shown) [Compound 67] ?
45

Could you tell me which Ratio of potency in SMO binding assay to potency in C3H10T1/2 cellular assay is on file for O=S(=O)(C1CN(CC2(C(F)(F)F)CC2)C1)N1CCC(c2c[nH]c3ncccc23)CC1 [Compound 313] ?
2.7

Could you tell me which Ratio of potency in SMO binding assay to potency in C3H10T1/2 cellular assay is on file for O=C(NCCS(=O)(=O)N1CCC(c2c[nH]c3ncccc23)CC1)OC1CCCCC1 [Compound 292] ?
4.3

Could you tell me which Ratio of potency in SMO binding assay to potency in C3H10T1/2 cellular assay is on file for CC(C)(C)OC(=O)N1CC(S(=O)(=O)N2CCC(c3ccnc4ccccc34)CC2)C1 [Compound 410] ?
3.1

Could you tell me which Ratio of potency in SMO binding assay to potency in C3H10T1/2 cellular assay is on file for CC(C)OC(=O)N1CC(S(=O)(=O)N2CCC(c3c[nH]c4ncccc34)CC2)C1 [Compound 97] ?
22
